Source listed as patent US8815857B2.

Listed below: EC50 values for each entry.
- STUDY_TARGET: human soluble guanylate cyclase alpha 1 and beta 1 subunits (sGC) stably expressed in Chinese hamster ovary cells (Homo sapiens, UniProt Q02108+Q02153)
- Construct: expressed in transfected cells; host or cells: Chinese hamster ovary cells, stably transfected
- Sequence (Q02108 1-690 partner): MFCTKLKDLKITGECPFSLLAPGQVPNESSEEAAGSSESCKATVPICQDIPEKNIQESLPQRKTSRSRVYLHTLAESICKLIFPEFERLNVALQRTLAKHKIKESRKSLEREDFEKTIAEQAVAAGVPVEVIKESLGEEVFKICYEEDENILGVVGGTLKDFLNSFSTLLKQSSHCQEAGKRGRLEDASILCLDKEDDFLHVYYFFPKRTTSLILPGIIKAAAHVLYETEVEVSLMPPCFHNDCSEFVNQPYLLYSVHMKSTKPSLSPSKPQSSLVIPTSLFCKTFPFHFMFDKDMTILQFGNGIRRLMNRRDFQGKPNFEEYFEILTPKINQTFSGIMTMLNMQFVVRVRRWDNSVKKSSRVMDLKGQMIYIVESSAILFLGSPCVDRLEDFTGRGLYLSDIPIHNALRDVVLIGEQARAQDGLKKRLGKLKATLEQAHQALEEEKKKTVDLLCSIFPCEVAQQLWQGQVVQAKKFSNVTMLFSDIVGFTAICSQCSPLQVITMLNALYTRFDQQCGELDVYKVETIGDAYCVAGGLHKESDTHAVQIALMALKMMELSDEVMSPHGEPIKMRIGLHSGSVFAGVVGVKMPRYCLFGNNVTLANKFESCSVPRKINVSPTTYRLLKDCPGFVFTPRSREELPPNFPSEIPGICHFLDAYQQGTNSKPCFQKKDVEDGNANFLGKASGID
- Sequence (Q02153 1-619): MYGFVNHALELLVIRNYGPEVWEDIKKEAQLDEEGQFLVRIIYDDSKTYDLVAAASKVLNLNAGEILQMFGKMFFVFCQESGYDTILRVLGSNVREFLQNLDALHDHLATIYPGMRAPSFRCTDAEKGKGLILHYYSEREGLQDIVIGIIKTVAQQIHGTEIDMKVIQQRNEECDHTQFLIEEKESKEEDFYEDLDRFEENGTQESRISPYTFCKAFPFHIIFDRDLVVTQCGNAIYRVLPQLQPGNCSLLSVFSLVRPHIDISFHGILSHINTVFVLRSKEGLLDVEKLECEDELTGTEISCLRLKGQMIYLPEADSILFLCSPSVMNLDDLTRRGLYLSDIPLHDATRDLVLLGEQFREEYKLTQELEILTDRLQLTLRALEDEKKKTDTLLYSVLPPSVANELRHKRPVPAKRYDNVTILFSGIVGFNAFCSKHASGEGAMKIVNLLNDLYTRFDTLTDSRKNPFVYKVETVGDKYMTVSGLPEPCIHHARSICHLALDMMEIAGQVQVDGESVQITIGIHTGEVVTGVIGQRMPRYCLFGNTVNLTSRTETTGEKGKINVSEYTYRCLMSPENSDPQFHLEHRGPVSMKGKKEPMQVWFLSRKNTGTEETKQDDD
- TEST_DESCRIPTION: sGC cellular activator assay: cGMP in CHO cells expressing human sGC, preincubated with ODQ
- Format: cell-based
- CONDITION_PARAMETERS: 40 microM ODQ preincubation, 30 min at room temperature, presence or absence of 50% human serum not given, read-out: EC50 nM, Activity of Compounds in Cellular Assay
- Protocol: The sGC cellular activator assay is performed in the presence and absence of 50% human serum (HS) using Chinese hamster ovary cells that have been stably transfected to express the human soluble guanylate cyclase alpha 1 and beta 1 subunits (sGC). […] Diluted compounds are added to cells and they are incubated at room temperature for thirty minutes. cGMP is measured using a CisBio homogeneous time resolved fluorescence kit and the EC50 is calculated for each compound.
Answer with the value and then the unit.

Some compounds with known EC50 results, for comparison:
1. Cc1ccc(OCc2ccc(C(=O)N(C)CCO)cc2C)c(-c2csc(N3C[C@H]4CC[C@@H](C3)[C@H]4C(=O)O)n2)c1 [Compound 297]: 100 nM
2. COC[C@]1(C(=O)O)[C@@H]2CC[C@H]1CN(c1nc(-c3cc(C)ccc3OCc3ccc(C(=O)N4CCCCC4)cc3C)cs1)C2 [Compound 258]: 550 nM
3. Cc1ccc(OCc2ccc(C(=O)N3CCOCC3)cc2C)c(-c2csc(N3CC[C@@H](C(=O)O)[C@H]3C)n2)c1 [Compound 241]: 41 nM
4. Cc1ccc(OCc2ccc(CN3C[C@@H](C)O[C@@H](C)C3)cc2C#N)c(-c2csc(N3C[C@H]4CC[C@@H](C3)[C@H]4C(=O)O)n2)c1 [Compound 356]: 24 nM
5. Cc1ccc(OCc2ccc(CN3CCOCC3)cc2C)c(-c2csc(N3CC[C@@H](C(=O)O)[C@H]3C)n2)c1 [Compound 242]: 90 nM

Note to self: EC50 recorded for Cc1ccc(OCc2ccc(CN3CCS(=O)(=O)CC3)cc2C)c(-c2csc(N3CCCC(C)(C(=O)O)CC3)n2)c1 (stereo not shown) [Compound 230] was 120 nM

Note to self: EC50 recorded for Cc1ccc(OCc2ccc(CN3CCO[C@H](C)C3)cc2C#N)c(-c2csc(N3C[C@H]4CC[C@@H](C3)[C@H]4C(=O)O)n2)c1 [Compound 357] was 24 nM

Note to self: EC50 recorded for Cc1ccc(OCc2ccc(C(=O)N3CCCCC3)cc2OC(F)(F)F)c(-c2csc(N3C[C@H]4CC[C@@H](C3)[C@H]4C(=O)O)n2)c1 [Compound 279] was 11 nM

Note to self: EC50 recorded for Cc1ccc(OCc2ccc(CN3CCS(=O)(=O)CC3)cc2C)c(-c2csc(N3CC[C@]4(C(=O)O)C[C@@H]4C3)n2)c1 [Compound 222] was 110 nM

Note to self: EC50 recorded for Cc1ccc(OCc2c(C)cc(C(=O)N3CCN(C)C(=O)C3)cc2C)c(-c2csc(N3C[C@H]4CC[C@@H](C3)[C@H]4C(=O)O)n2)c1 [Compound 284] was 100 nM

Note to self: EC50 recorded for CCOC1CCN(C(=O)c2ccc(COc3ccc(C)cc3-c3csc(N4C[C@H]5CC[C@@H](C4)[C@H]5C(=O)O)n3)c(C)c2)C1 (stereo partly shown) [Compound 332] was 30 nM

Note to self: EC50 recorded for CO[C@@H]1CCN(C(=O)c2ccc(COc3ccc(C)cc3-c3csc(N4C[C@H]5CC[C@@H](C4)[C@H]5C(=O)O)n3)c(C)c2)C1 [Compound 329] was 23 nM

Note to self: EC50 recorded for Cc1cc(CN2CCS(=O)(=O)CC2)ccc1COc1ccc(F)cc1-c1csc(N2CC3CCC(C2)C3C(=O)O)n1 (stereo not shown) [Compound 275] was 670 nM
